Tested on: DMS 114 small cell lung
protocolText: NCI tumour cell line growth inhibition, 48 h
metricName: TGI

Example cases with answers are listed next.
CN1COc2c(n(C)c(=O)[nH]c2=O)C1
> 100 µM
Cc1cc(N(CCC#N)CCC#N)ccc1/C=C1/N=C(c2ccccc2)N(N)C1=O
> 100 µM
Nc1ccc(C(=O)NN2C(=O)C(Cl)C2c2ccccc2)cc1 (centres undefined)
> 100 µM

Here is another compound to look at.
Value of TGI reported for the compound Cc1ccc(S(=O)OC2C3CC4CC(C3)CC2C4)cc1 (centres undefined) is > 100 µM

* * *

System: RXF 393 renal
protocolText: NCI tumour cell line growth inhibition, 48 h
Catalogue of compounds with associated TGI
Give the number; µM is assumed, so skip it.

Study these solved cases before continuing.
CN(C)CCC(/C=C/c1ccccc1)=N\Nc1ccc(Cl)cc1Cl
21
CCCCn1c(=O)c2c(nc3n2CCCN3CCc2ccc(OCC(=O)NCCN(CC)CC)cc2)n(CCCC)c1=O
6.76
CCN(Cc1ccc(Cl)s1)c1ccc(CO)c(Cl)c1
14.6
COc1ccc(C(Cl)=C(c2ccc(OCCN(C)C)cc2)c2ccc(OCCN(C)C)cc2)cc1
2.65
CC(C)(C)c1ccc(C(=O)Nc2sc3c(c2C(N)=O)CCC(=O)C3)cc1
1.94

Now turn to the next compound.
response.value for CC1CN1c1c(C(=O)/C=C/c2ccccc2)c(-c2ccccc2)nn(C)c1=O (stereo not given) (field: TGI) = 41.4
